Please provide measured AC50 for the entries that follow.
# Test system: B cell line, TNFa signaling counterscreen reporter
# measurement.protocol: TNFa signaling inhibitors in B cell line, dose response, counter-screen (AID 1259334);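 also: cells stimulated with TNFa after compound preincubation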
Active and inactive are the calls of the source. Rule as the data show it: active = AC50 below about 11 µM.

Illustrative cases are given below, each with its answer.
Cc1cc(C)nc(Sc2ncnc(N)c2[N+](=O)[O-])n1 | 2530 nM
O=C1c2c(O)ccc(O)c2C(=O)c2c(NCCNCCO)ccc(NCCNCCO)c21 | 1180 nM
COc1ccc(S(=O)(=O)Nc2ccc3c(c2)C(=O)N([C@H](C)CO)C[C@@H](C)[C@@H](CN(C)Cc2ccc(C(F)(F)F)cc2)OCCCC[C@H](C)O3)cc1 | > 20000 nM (inactive)
CC1CC(C)C(=O)C(C(O)CC2CC(=O)NC(=O)C2)C1 (centres undefined) | 115 nM
O=C1NC2C(=CC(O)C(O)C2O)c2cc3c(c(O)c21)OCO3 (centres undefined) | 42.3 nM
C[n+]1c(-c2ccccc2)cc2c(=Cc3ccc([N+](=O)[O-])cc3)c3ccccc3n21 | 2960 nM
CCN(CC)C(=O)c1ccc(NC(=O)Nc2ccccc2F)cc1 | 1860 nM
C[C@@H]1CN([C@H](C)CO)C(=O)c2c(c3ccccc3n2C)-c2ccccc2CO[C@H]1CN(C)Cc1cccc(C(F)(F)F)c1 | > 20000 nM (inactive)

For B cell line, TNFa signaling counterscreen reporter, provide AC50 of `O=C(C1CCCC1)N1CC(=O)N2[C@@H](CO)[C@@H](c3ccc(C#CCc4ccccc4)cc3)[C@@H]2C1` please. 1700 nM

* * *

# Test system: B cell line, TNFa signaling counterscreen reporter
# measurement.protocol: TNFa signaling inhibitors in B cell line, dose response, counter-screen (AID 1259334);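 also: cells stimulated with TNFa after compound preincubation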
Active and inactive are the calls of the source. Rule as the data show it: active = AC50 below about 11 µM.
Assign a class; possible classes are y (active), n (inactive)

CCc1csc(N2[C@H](C#N)[C@H](c3ccc(C#Cc4ccc(F)cc4)cc3)[C@H]2CO)n1 | n

For this compound, state the assay outcome: CC(C)c1ccc(NC(=O)Nc2nc(C(N)COCc3ccccc3)cs2)cc1 (stereo not given) y

For this compound, state the assay outcome: `COc1ccc2c3c(n(C)c2c1)[C@@H](CO)N(C(=O)Nc1ccc(F)cc1)CC31CN(Cc2ccccc2F)C1` n

For this compound, state the assay outcome: `CC(=O)Nc1ccc(Sc2ccc([N+](=O)[O-])o2)cc1` y

For this compound, state the assay outcome: `[O-]C(=C(C(=S)Nc1cccc2ccccc12)[n+]1ccccc1)c1ccc2c(c1)OCCO2` n

* * *

# measurement.protocol: TNFa signaling inhibitors in B cell line, dose response, counter-screen (AID 1259334);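 also: cells stimulated with TNFa after compound preincubation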
# experimental.context: B cell line, TNFa signaling counterscreen reporter; at 0.042 µM; hits give low values
Output 1.0 for records whose max activity is lower than 10%, 0.0 for records at or above 10%.

Worked examples follow.
COc1ccc(S(=O)(=O)N(C)C[C@H]2Oc3ccc(NC(=O)Nc4ccc(C(F)(F)F)cc4)cc3C(=O)N([C@@H](C)CO)C[C@H]2C)cc1 | 0.0
CC(=O)Nc1ccc(S(=O)(=O)c2ccc(N)cc2)cc1 | 1.0
N#C[C@@H]1[C@@H](c2ccc(C#CC3CCCCC3)cc2)[C@H](CO)N1C(=O)Nc1ccc(F)cc1 | 0.0
COc1ccc(CN2CC3(CN(S(=O)(=O)c4ccc(C)cc4)C3)c3c([nH]c4cc(OC)ccc34)[C@H]2CO)cc1 | 0.0
CC1=NNC(=O)C1Br (stereo unspecified) | 0.0

Report whether reported max activity is lower than 10% (strictly) for `O=S(=O)(c1cccc2cnccc12)N1CCNCC1` 1.0

* * *

# Tested on: B cell line, TNFa signaling counterscreen reporter
# measurement.protocol: TNFa signaling inhibitors in B cell line, dose response, counter-screen (AID 1259334);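 also: cells stimulated with TNFa after compound preincubation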
The source made the active and inactive calls. No stated cut-off is given here; in the data, active means AC50 below about 11 µM.
Assign a class; possible classes are active, inactive

COc1cc(C(=O)CCN2CCC(c3ccccc3)C2)cc(OC)c1OC (stereo not given) | active
CC(C)[C@H](CO)Nc1nc(Nc2cccc(Cl)c2)c2ncn(C(C)C)c2n1 | active
Cc1nc(C)c(C(=O)Nc2ncc([N+](=O)[O-])s2)o1 | active
C[C@@H]1CC=CC[C@H](c2ccc(F)cc2)NC(=O)[C@@H](Cc2ccccc2)N(C)C(=O)c2ccccc2O1 (mixture of isomers) | inactive
O=S(=O)(CCSc1ccccn1)c1nc2ccccc2s1 | active

Now, please, on to the next molecule.
For this molecule, state the assay outcome: `CCOc1ccc(OCc2cccc(C(=O)N3CCOCC3)c2)cc1` active

* * *

# System: B cell line, TNFa signaling counterscreen reporter
# measurement.protocol: TNFa signaling inhibitors in B cell line, dose response, counter-screen (AID 1259334);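 also: cells stimulated with TNFa after compound preincubation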
Calls of active or inactive are those of the source. No stated cut-off is given here; in the data, active means AC50 below about 11 µM.
Assign a class; possible classes are active, inactive

Worked examples follow.
CC(C)(C)NCC(=Cc1ccccc1)C(=O)c1ccccc1 | active
CC[N+]1(C)CCC(O)(c2ccc(OC)cc2)C(C(=O)c2ccc(OC)cc2)C1 (configuration not stated) | active
Cn1cnc(CCNC(=O)C[C@@H]2CC[C@@H]3[C@H](COC[C@@H](O)CN3C(=O)Nc3ccc(C(F)(F)F)cc3)O2)c1 | active
Cc1cccc(-c2ccc(C3[C@@H]4CN(C(=O)Nc5ccc(C(F)(F)F)cc5)C[C@H]3N4)cc2)c1 (some centres not stated) | inactive
CC1=CC2OC3CC4OC(=O)C=CC=CC(=O)OCCC(C)C(O)C(=O)OCC2(CC1O)C4(C)C31CO1 (configuration not stated) | active

For this compound, state the assay outcome: `COc1ccc(C#Cc2ccc([C@@H]3[C@H](CO)N4CCCCN(C(=O)Nc5cccc(F)c5)C[C@@H]34)cc2)cc1` active

* * *

# Tested on: B cell line, TNFa signaling counterscreen reporter
# measurement.protocol: TNFa signaling inhibitors in B cell line, dose response, counter-screen (AID 1259334);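 also: cells stimulated with TNFa after compound preincubation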
Active and inactive are the calls of the source. No stated cut-off is given here; in the data, active means AC50 below about 11 µM.
Assign a class; possible classes are active, inactive

Worked examples follow.
CC1=CC(C)(C)N=C(Nc2nc(C)c3cc(C)cc(C)c3n2)N1 | active
NC(=O)c1c(Br)n(C2OC(CO)C(O)C2O)c2ncnc(N)c12 (centres undefined) | active
CN1C(=O)/C(=N\OC(=O)c2cccc3ccccc23)c2ccccc21 | active

For this compound, state the assay outcome: `N#C[C@H]1[C@H](c2ccc(-c3cccc(F)c3)cc2)[C@H](CO)N1C(=O)NC1CCCC1` inactive

For this compound, state the assay outcome: CCCCNC(=O)C1(C)CCN1C(=O)c1cc(-c2cccs2)oc1C (centres undefined) active

For this compound, state the assay outcome: `Cc1noc(C)c1S(=O)(=O)Nc1ccc2c(c1)C(=O)N([C@H](C)CO)C[C@@H](C)[C@H](CN(C)C(=O)Nc1cccc3ccccc13)OCCCC[C@@H](C)O2` inactive

For this compound, state the assay outcome: `O=C(Nc1ccccc1)N1CC(=O)N2[C@H](CO)[C@@H](c3ccc(C#CC4CCCCC4)cc3)[C@H]2C1` active

For this compound, state the assay outcome: OC1CC2CCC(C1)N2CCCN1c2ccccc2Sc2ccc(Cl)cc21 (centres undefined) active

For this compound, state the assay outcome: O=C1CC(c2ccc3c(c2)OCO3)Sc2nc3ccccc3n21 (centres undefined) active

* * *

# Test system: B cell line, TNFa signaling counterscreen reporter
# measurement.protocol: TNFa signaling inhibitors in B cell line, dose response, counter-screen (AID 1259334);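 also: cells stimulated with TNFa after compound preincubation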
Activity calls are given as the source filed them. No stated cut-off is given here; in the data, active means AC50 below about 11 µM.
Assign a class; possible classes are 1 for active, -1 for inactive

Worked examples follow.
CC(=O)NC12CC3CC(C1)CC(C(=O)OCC(=O)c1ccc4c(c1)OCCO4)(C3)C2 | 1
N#C[C@H]1[C@H](c2ccc(C#Cc3ccc(F)cc3)cc2)[C@@H](CO)N1C(=O)C1CCC1 | -1
N#C[C@@H]1[C@H](c2ccc(C#CC3CCCCC3)cc2)[C@@H](CO)N1S(=O)(=O)c1ccccc1 | 1

Now, please, on to the next molecule.
For this molecule, state the assay outcome: CC(C)[C@H](N)C(=O)N[C@H]1CCC2C3CC=C4C[C@@H](O)CC[C@]4(C)C3CC[C@@]21C (some centres undefined) 1

* * *

# Tested on: B cell line, TNFa signaling counterscreen reporter
# measurement.protocol: TNFa signaling inhibitors in B cell line, dose response, counter-screen (AID 1259334);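 also: cells stimulated with TNFa after compound preincubation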
Calls of active or inactive are those of the source. Rule as the data show it: active = AC50 below about 11 µM.
Assign a class; possible classes are 1.0 for active, 0.0 for inactive

Worked examples follow.
C[C@H]1CN([C@@H](C)CO)C(=O)Cc2cc(NC(=O)Cc3cn(C)c4ccccc34)ccc2O[C@H]1CN(C)Cc1ccc(C(F)(F)F)cc1 | 0.0
O=C1C=CC2C3C(=O)N(c4ccccc4)C(=O)C3C1N2Cc1ccccc1 (stereo not given) | 1.0
O=C1C=CC(=O)c2c(O)c(N3CCN(CCOCCO)CC3)c(Br)c(O)c21 | 1.0
O=C1CC(=O)OC(c2ccc([N+](=O)[O-])cc2)O1 | 1.0

Now, please, on to the next compound.
For this compound, state the assay outcome: Fc1ccccc1CNCCC(Cc1ccccc1)c1ccc2c(c1)OCO2 (stereo not given) 1.0
